- experimental target: hSTING (Homo sapiens, UniProt Q86WV6, G230A/H232R/R293Q/R71H)
- Sequence (Q86WV6 whole entry R71H/G230A/H232R/R293Q): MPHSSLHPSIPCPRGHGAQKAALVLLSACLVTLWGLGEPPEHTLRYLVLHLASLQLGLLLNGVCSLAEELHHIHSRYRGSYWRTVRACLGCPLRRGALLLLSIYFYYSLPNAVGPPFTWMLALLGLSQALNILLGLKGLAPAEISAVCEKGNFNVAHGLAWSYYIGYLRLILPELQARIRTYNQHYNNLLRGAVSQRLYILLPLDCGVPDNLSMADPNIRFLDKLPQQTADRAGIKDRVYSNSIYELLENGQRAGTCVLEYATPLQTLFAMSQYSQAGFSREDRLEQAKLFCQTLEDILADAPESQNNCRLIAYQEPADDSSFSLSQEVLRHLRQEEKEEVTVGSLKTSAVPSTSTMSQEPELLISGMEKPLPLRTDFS
- test summary: STING reporter assay: THP1-Dual KO-IFNAR2 cells stimulated with 2′3′cGAMP, luciferase reporter activity
- condition details: 15 μM 2′3′cGAMP transfected with Lipofectamine 2000, 24 h, luciferase reporter (QUANTI-Luc)
pEC50: −log10 of the molar value.
As shown below, each of these compounds has a reported pEC50 value.

Below, 5 compounds whose answers are already recorded.
In [3]: df
Out[3]:
                           smiles_structure  value_type  reported_value
0  O=C(Nc1c[nH]c2cc(F)c(Cl)cc12)c1cnn(Cc2ccc(C(F)(F)F)cc2)c1       pEC50    6.70 to 7.40
1  O=C(Nc1c[nH]c2cc(F)c(F)cc12)c1ccnn1CCOc1cccnc1       pEC50    4.00 to 5.30
2  O=C(Nc1c[nH]c2cc(F)c(F)cc12)c1cc(-c2ccc(Cl)cc2)n[nH]1       pEC50    6.00 to 6.70
3  O=C(Nc1c[nH]c2cc(Cl)c(F)cc12)c1cnn(Cc2ccc(C(F)(F)F)cc2)c1       pEC50    6.00 to 6.70
4  O=C(Nc1c[nH]c2cc(F)c(F)cc12)c1cc(-c2ccc(F)cc2F)on1       pEC50    6.00 to 6.70

compound COc1cc2[nH]cc(NC(=O)c3cnn(Cc4ccc(C(F)(F)F)cc4)c3)c2cn1 , pEC50 observed: 5.30 to 6.00

The compound listed as O=C(Nc1c[nH]c2c(F)cncc12)c1cnn(Cc2ccc(C(F)(F)F)cc2)c1 has a reported pEC50 of 6.00 to 6.70

Memo: Cc1cc(C(=O)Nc2c[nH]c3cc(F)c(F)cc23)nn1Cc1ccc(C(F)(F)F)cc1 , reported pEC50: 6.00 to 6.70

These entries and their values trace back to patent US20230271941A1.
